Examples of molecules with documented inhibition at 0.1 µM follow.
- target-under-test: BRAF (Homo sapiens, UniProt P15056)
- Construct: purchased Invitrogen
- Sequence (P15056 whole entry): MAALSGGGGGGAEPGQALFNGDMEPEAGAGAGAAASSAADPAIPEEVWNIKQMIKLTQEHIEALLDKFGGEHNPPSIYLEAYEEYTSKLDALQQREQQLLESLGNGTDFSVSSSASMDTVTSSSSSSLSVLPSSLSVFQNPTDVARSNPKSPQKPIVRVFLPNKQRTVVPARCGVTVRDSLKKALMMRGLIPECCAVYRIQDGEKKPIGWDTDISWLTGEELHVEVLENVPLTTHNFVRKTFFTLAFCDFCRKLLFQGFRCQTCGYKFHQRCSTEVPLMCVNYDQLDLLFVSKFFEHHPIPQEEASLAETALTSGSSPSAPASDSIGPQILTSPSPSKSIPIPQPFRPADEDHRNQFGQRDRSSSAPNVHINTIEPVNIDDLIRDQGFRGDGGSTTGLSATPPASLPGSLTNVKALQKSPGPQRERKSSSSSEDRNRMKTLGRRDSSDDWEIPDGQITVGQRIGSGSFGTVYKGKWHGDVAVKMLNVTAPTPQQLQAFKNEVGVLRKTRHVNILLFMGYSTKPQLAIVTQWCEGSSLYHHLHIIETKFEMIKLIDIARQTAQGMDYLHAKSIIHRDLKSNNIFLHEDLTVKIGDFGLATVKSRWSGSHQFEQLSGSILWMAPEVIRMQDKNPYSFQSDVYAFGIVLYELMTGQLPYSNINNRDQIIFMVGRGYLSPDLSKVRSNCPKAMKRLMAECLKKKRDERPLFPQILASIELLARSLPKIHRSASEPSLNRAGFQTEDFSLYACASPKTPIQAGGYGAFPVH
- test-protocol: In vitro kinase assay (Z'-LYTE), BRAF
- Format: biochemical
- measurement-context: read-out: % of inhibition of the kinase compared to the control

CC(=O)c1cc2cc(NCc3cccc(NC(=O)c4ccc(CN5CC[C@H](N(C)C)C5)c(C(F)(F)F)c4)c3)cnc2[nH]1 [OR0927] | < 50%
CC(=O)c1cc2cc(NCc3cc(NC(=O)c4ccc(CN5CCC(N(C)C)C5)c(C(F)(F)F)c4)ccc3C)cnc2[nH]1 (stereo not shown) [OR0718] | ≥ 50%
CC(=O)c1cc2cc(NC(=O)c3cccc(CNC(=S)c4cccc(C(F)(F)F)c4)c3)cnc2[nH]1 [OR1012] | < 50%

Look up inhibition at 0.1 µM for this molecule: CC(=O)c1cc2cc(NCc3cccc(C(=O)Nc4cccnc4)c3)cnc2[nH]1 [OR0917]
< 50%

Look up inhibition at 0.1 µM for this molecule: CC(=O)c1cc2cc(NC(=O)c3cccc(CNC(=O)c4ccc(CN5CCN(C)CC5)c(C(F)(F)F)c4)c3)cnc2[nH]1 [OR0984]
< 50%

Look up inhibition at 0.1 µM for this molecule: CC(=O)c1cc2cc(NCc3cc(NC(=O)c4cncc(C(F)(F)F)c4)ccc3F)cnc2[nH]1 [OR0970]
≥ 50%

Look up inhibition at 0.1 µM for this molecule: CC(=O)c1cc2cc(NCc3cc(NC(=O)c4ccc(CN5CCN(C)CC5)c(F)c4)ccc3C)cnc2[nH]1 [OR0885]
≥ 50%
